Hello, the source for this data is PubChem BioAssay (NCI), in case you need it.

TGI for assorted compounds
tested on: LXFL 529 NSCLC; experiment: NCI tumour cell line growth inhibition, 48 h
measurementType: TGI

compound="O=C(c1ccc(O)cc1O)C1C(c2ccc(O)cc2)OC(c2ccc(O)cc2)C1C(=O)c1ccc(O)cc1O (stereo unspecified)" targetorsystem="LXFL 529 NSCLC" result="34.7 µM"
compound=COc1cc2ccc3c4ccccc4cnc3c2cc1OC targetorsystem="LXFL 529 NSCLC" result="> 100 µM"
compound=O=C(O/N=C1\CCCC\C1=C/c1ccccc1)c1ccc([N+](=O)[O-])cc1 targetorsystem="LXFL 529 NSCLC" result="> 100 µM"
compound=CCOC(=O)c1c2ccc(/C=C/c3ccccn3)ccc-2c(C(=O)OCC)c1N targetorsystem="LXFL 529 NSCLC" result="> 100 µM"
compound=COc1ccccc1NC(=O)C1=C(C)NC(C)=C(C(=O)Nc2ccccc2OC)C1c1ccccc1[N+](=O)[O-] targetorsystem="LXFL 529 NSCLC" result="25 µM"
compound=COC(=O)CCSC(=O)Nc1ccc(N=Nc2ccccc2)cc1 targetorsystem="LXFL 529 NSCLC" result="> 100 µM"
compound=CC(C)(C)N=CN1C=Cc2nc3ccccc3cc2C1 targetorsystem="LXFL 529 NSCLC" result="> 100 µM"
compound="COC(=O)C1CC2C=CC=CC(=O)C2(C)C1 (stereo unspecified)" targetorsystem="LXFL 529 NSCLC" result="> 100 µM"
compound=Nc1ccc2n[se]nc2c1 targetorsystem="LXFL 529 NSCLC" result="> 100 µM"
compound="N#CC(NNC(=O)Cc1ccccc1)c1cccc(O)c1 (stereo unspecified)" targetorsystem="LXFL 529 NSCLC" result="> 100 µM"
compound="Cc1ccc(C(=O)CC2(O)C(=O)Nc3c(C)cc(Cl)cc32)cc1 (stereo unspecified)" targetorsystem="LXFL 529 NSCLC" result="> 100 µM"

* * *

system: HCT-15 colon; assay: NCI tumour cell line growth inhibition, 48 h
TGI for assorted compounds
measurementType: TGI

compound=O=C(Nc1ccc(Oc2ccc(F)cc2)cc1)[C@@H]1C[C@@H](Cc2ccc(F)cc2)CN1C(=O)Cn1ccnn1 result="23.1 µM"
compound=CC(C)(C)c1cc(CCC(=O)Nc2ccc(Cl)cc2)[nH]c(=S)n1 result="> 100 µM"
compound=C[C@]12C=CC(=O)C=C1CC[C@@H]1[C@@H]2CC[C@@]2(C)[C@H]1CC[C@]2(O)C(N)=O result="> 100 µM"
compound="S=c1sc2c(s1)SC(c1ccccc1)CS2 (configuration not stated)" result="> 100 µM"
compound="OCC1O[C@H](O[C@@H]2CCCN3CC(O)C(O)[C@@H]23)C(O)C(O)C1O (some centres not stated)" result="> 100 µM"
compound="CCCCN(CCCC)C(=O)[C@H](CC)[C@@H]1CC[C@@H](C)[C@@H]([C@H](C)[C@@H](O)[C@@H](C)C(=O)[C@H](CC)C2O[C@]3(C=C[C@@H](O)[C@]4(CC[C@@](C)([C@H]5CC[C@](O)(CC)[C@H](C)O5)O4)O3)[C@H](C)C[C@@H]2C)O1 (some centres not stated)" result="6.12 µM"
compound=CCOC(=O)[C@@H](C)C[C@H](Cc1ccccc1)NC(=O)c1csc([C@@H](C[C@H](C(C)C)N(C)C(=O)[C@@H](NC(=O)[C@H]2CCCCN2C)C(C)(C)CC)OC(C)=O)n1 result="> 5.93 µM"
